Where do these numbers come from? They come from ChEMBL document CHEMBL5365394.

Overview of recorded inhibition for various compounds
# System: Candida tropicalis
# protocol-text: Inhibition of Candida tropicalis ATCC 750 chitin synthase using […] as substrate at 300 ug/ml incubated for 1 hr by absorbance based assay relative to control
# experimental-setup: dose 300.0 µg/ml
Lab book: enter the figure in %, no units written.

Known results for compounds:
* O=C(/C=C/C(=O)Nc1ccc2c(c1)C(=O)NC1(CCCC1)N2)Nc1ccc(F)c(Cl)c1 | 48.2
* O=C(/C=C/C(=O)Nc1ccc2c(c1)C(=O)NC1(CCCC1)N2)Nc1ccc(Br)cc1 | 56.4

The recorded inhibition for O=C(/C=C/C(=O)Nc1ccc2c(c1)C(=O)NC1(CCOC1)N2)Nc1ccc(F)c(Cl)c1 (stereo not drawn) is 56.8

Record O=C(/C=C/C(=O)Nc1ccc(Cl)cc1Cl)Nc1ccc2c(c1)C(=O)NC1(CCSC1)N2 (stereo not drawn) , field inhibition: 73.9

What the record says about NC(=O)OC[C@H](O)[C@@H](O)[C@H](N)C(=O)N[C@H](C(=O)O)[C@H]1O[C@@H](n2cc(CO)c(=O)[nH]c2=O)[C@H](O)[C@@H]1O : inhibition is 84.7

Measured inhibition, O=C(/C=C/C(=O)Nc1ccccc1Cl)Nc1ccc2c(c1)C(=O)NC1(CCOC1)N2 (stereo not drawn) : 53.7

Record O=C(/C=C/C(=O)Nc1ccccc1[N+](=O)[O-])Nc1ccc2c(c1)C(=O)NC1(CCSC1)N2 (stereo not drawn) . Reported inhibition: 81.9

Recorded result, O=C(/C=C/C(=O)Nc1ccc2c(c1)C(=O)NC1(CCSC1)N2)Nc1ccc(Br)cc1 (stereo not drawn) , inhibition: 75.3
